- target_system: the molecule itself
- protocol: cell-based or functional assay
Measured Recovery Time Crossover [s], 25 C of individual entries
Only the number, expressed in s, is required.

See these solved cases before continuing.
protein="PXP (SEQ ID NO: 81) (designed binder) MRGSHHHHHHGSGRGDSVDGSGSGSGSGSGSGAPQMLRELQETNAALQDVRELLRQQVKEITFLKNTVMESDASGSGSGSGSGSGSLDGSPAGSPTSTEEGTSESATPESGPGTSTEPSEGSAPGSPAGSPTSTEEGTSTEPSEGSAPGTSTEPSEGSAPGTSESATPESGPGSEPATSGSETPGSEPATSGSETPGSPAGSPTSTEEGTSESATPESGPGTSTEPSEGSAPLDGSGSGSGSGSGSGAPQMLRELQETNAALQDVRELLRQQVKEITFLKNTVMESDASGSGSGSGSGSGSLEGRGDSHHHHHHKLN" readout_unit=s value_measured=4.79
protein="T40A+Q54A mutant (SEQ ID NO: 84) (designed binder) MRGSHHHHHHGSGRGDSGSGSGSGSGSGSGAPQMLRELQEANAALQDVRELLRQAVKEITFLKNTVMESDASGSGSGSGSGSVDGSPAGSPTSTEEGTSESATPESGPGTSTEPSEGSAPGSPAGSPTSTEEGTSTEPSEGSAPGTSTEPSEGSAPGTSESATPESGPGSEPATSGSETPGSEPATSGSETPGSPAGSPTSTEEGTSESATPESGPGTSTEPSEGSAPLESGSGSGSGSGSGAPQMLRELQEANAALQDVRELLRQAVKEITFLKNTVMESDASGSGSGSGSGSGSGRGDSHHHHHHKLN" readout_unit=s value_measured=4.39

Next protein, please.
Sample Q54A mutant (SEQ ID NO: 83) (designed binder) MRGSHHHHHHGSGRGDSGSGSGSGSGSGSGAPQMLRELQETNAALQDVRELLRQAVKEITFLKNTVMESDASGSGSGSGSGSVDGSPAGSPTSTEEGTSESATPESGPGTSTEPSEGSAPGSPAGSPTSTEEGTSTEPSEGSAPGTSTEPSEGSAPGTSESATPESGPGSEPATSGSETPGSEPATSGSETPGSPAGSPTSTEEGTSESATPESGPGTSTEPSEGSAPLESGSGSGSGSGSGAPQMLRELQETNAALQDVRELLRQAVKEITFLKNTVMESDASGSGSGSGSGSGSGRGDSHHHHHHKLN ; Recovery Time Crossover [s], 25 C observed: 4.45

Where do the numbers come from? From patent US20260151539A1.
